test system: RARa:RXR (NR concentration 270 nM, RXRa partner concentration 90 nM); assay: PBM binding z-score (relative to random genomic background probes); higher = stronger binding; sequences stand for … in GC…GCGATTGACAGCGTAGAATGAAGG
OBSERVED_PROPERTY: PBM binding z-score
Keep the answer to the number alone.

For the record GCGACTGGGGCATAAGCAGGTTACCATAACTTAA , what value of PBM binding z-score is listed for RARa:RXR (NR concentration 270 nM, RXRa partner concentration 90 nM)?
0.498

For the record ACAGACAGGTGATGAAGGTAATTCAGGCTATCAT , what value of PBM binding z-score is listed for RARa:RXR (NR concentration 270 nM, RXRa partner concentration 90 nM)?
0.367

For the record GCTAGTTGGTCAATAAAAGGTCACACACCGGTCG , what value of PBM binding z-score is listed for RARa:RXR (NR concentration 270 nM, RXRa partner concentration 90 nM)?
5.89

For the record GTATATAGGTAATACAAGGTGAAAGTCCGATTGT , what value of PBM binding z-score is listed for RARa:RXR (NR concentration 270 nM, RXRa partner concentration 90 nM)?
1.95

For the record AGTCACAGTTCACTAGGTAACGTAAGATTCAGCT , what value of PBM binding z-score is listed for RARa:RXR (NR concentration 270 nM, RXRa partner concentration 90 nM)?
1.25

For the record CCTTACGAGTCACTCCAGGTTATAGCATCGGAGT , what value of PBM binding z-score is listed for RARa:RXR (NR concentration 270 nM, RXRa partner concentration 90 nM)?
0.999

For the record CGTCAAAGTTCAGGGTAACGTAACAGAAAGCAGC , what value of PBM binding z-score is listed for RARa:RXR (NR concentration 270 nM, RXRa partner concentration 90 nM)?
2.17

For the record CCTACTGGGCCATTCACAGGTCATTGATCATATG , what value of PBM binding z-score is listed for RARa:RXR (NR concentration 270 nM, RXRa partner concentration 90 nM)?
2.4

For the record CTCGAAAGGTCGTGATCAGGTGAGTATACCAAAC , what value of PBM binding z-score is listed for RARa:RXR (NR concentration 270 nM, RXRa partner concentration 90 nM)?
4.26

For the record CCTACTGGGCCACGAACGGTCATTGATTCAGTGA , what value of PBM binding z-score is listed for RARa:RXR (NR concentration 270 nM, RXRa partner concentration 90 nM)?
0.0689

For the record TCGAGCAGGTTAGGGGCATTCAGAATGGCGTCGA , what value of PBM binding z-score is listed for RARa:RXR (NR concentration 270 nM, RXRa partner concentration 90 nM)?
0.385

For the record TCAGATAGGTAAAAGGTGAAAGTCGGTGTGGTAA , what value of PBM binding z-score is listed for RARa:RXR (NR concentration 270 nM, RXRa partner concentration 90 nM)?
2.63

---

test system: LXRa:RXRa (NR concentration 270 nM, RXRa partner concentration 90 nM); assay: PBM binding z-score (relative to random genomic background probes); higher = stronger binding; sequences stand for … in GC…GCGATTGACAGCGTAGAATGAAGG
Classify as follows. Reported PBM binding z-score greater than or equal to 3: label 1. Reported PBM binding z-score below: label 0.

Does the reported PBM binding z-score for ACTAGCGGGCCAAGGGTCACTCAAGATTAGTCCG fall at or above the 3 mark?
label 0

Does the reported PBM binding z-score for GCAGACAGGTGAAATGCAGGTAACTCAGGGTGGC fall at or above the 3 mark?
label 0

Does the reported PBM binding z-score for TGAATGAGGTTAAAGATCAGGGATCGTGGCGTCG fall at or above the 3 mark?
label 0

Does the reported PBM binding z-score for TCTGCTAGGTCAATTGGTCAGCTAACGAGCTGCC fall at or above the 3 mark?
label 0

Does the reported PBM binding z-score for ATCTCTGGGTAAAGATAGTTCAGTGAATGCAAAT fall at or above the 3 mark?
label 1

Does the reported PBM binding z-score for CAAACTAGGTCACAGAGGTCTAAGTCCGTGCGTA fall at or above the 3 mark?
label 1

---

system: PPARg:RXRa 30nM:10nM, anti-RXR (NR concentration 30 nM, RXRa partner concentration 10 nM); test: PBM binding z-score (relative to random genomic background probes); higher = stronger binding; sequences stand for … in GC…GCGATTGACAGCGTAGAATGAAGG
Please go through the items and note down their PBM binding z-score.
Keep the answer to the number alone.

# query: PBM binding z-score of entry TGTCAAGGTTCAAAGGTAACGTAAGTATCCACAC
3.14

# query: PBM binding z-score of entry CTACCAACGTGAACAAGGTCGTTGATTACTATTC
-0.0638

# query: PBM binding z-score of entry CCGGACAGGTGAGAAGGTAACTCAGCCTCGATTA
-0.24

# query: PBM binding z-score of entry TCTCGGAGGACACGAAATGTCAGAGCTCGACATC
2.37

# query: PBM binding z-score of entry CAAACTAGGTCACCGGAAGGTCACAGTCCGCATG
6.06

# query: PBM binding z-score of entry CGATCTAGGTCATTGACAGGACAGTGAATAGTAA
3.13

---

test system: RARg homodimer (NR concentration 270 nM); assay: PBM binding z-score (relative to random genomic background probes); higher = stronger binding; sequences stand for … in GC…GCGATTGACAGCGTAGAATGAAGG
Classify as follows. Reported PBM binding z-score greater than or equal to 2: Y. Reported PBM binding z-score below: N.

Does the reported PBM binding z-score for AATACAGGGTCACTAGGCCAGAGTTGGTACGAAT fall at or above the 2 mark?
Y

Does the reported PBM binding z-score for TCTAGTTGGTCAAAGGTCACACACTCGAAATGCG fall at or above the 2 mark?
Y

Does the reported PBM binding z-score for CATACAGGGTCAGCTATGCCAGAGTAGGGACGGC fall at or above the 2 mark?
Y

Does the reported PBM binding z-score for AGAATGAGGTTATTACGATCAGGGAATTGCGGTC fall at or above the 2 mark?
N

Does the reported PBM binding z-score for AGAATGAGGTTAAGATCAGGGATACAGAATACAT fall at or above the 2 mark?
N

Does the reported PBM binding z-score for TCGAGTAGGTTAGGTGCATTCAGAATGGCGTCGA fall at or above the 2 mark?
N

Does the reported PBM binding z-score for TGAATGAGGTTATAACATCAGGGAACGTTGCAAA fall at or above the 2 mark?
N

Does the reported PBM binding z-score for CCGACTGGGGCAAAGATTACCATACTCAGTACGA fall at or above the 2 mark?
N

Does the reported PBM binding z-score for AGAATGAAGTTAAGATCAGGGAAACAGAATACAT fall at or above the 2 mark?
N

Does the reported PBM binding z-score for CATCCAAGGTCATAGGAGGTCAGTGAAGACAGAT fall at or above the 2 mark?
Y

Does the reported PBM binding z-score for GTACCAAGGTGAATAGGTCGTTGTTGAGTAGGCG fall at or above the 2 mark?
N

Does the reported PBM binding z-score for GCTGCTAGGTCAGGTTGGCCAGCTAACGGGTACG fall at or above the 2 mark?
Y

Does the reported PBM binding z-score for CCGACTGGGGCAGAAAGGTTACCCTACCATCCGG fall at or above the 2 mark?
N

Does the reported PBM binding z-score for CAAACTAGGTCACAGAGGTCAGAGTCCGTGCGTA fall at or above the 2 mark?
Y

Does the reported PBM binding z-score for TCAAATAGGTAAACAGGTGAAAGTCCGTAAGTTA fall at or above the 2 mark?
N

Does the reported PBM binding z-score for CCTGCTAGGTCAATTGTCAGCTAAAGCAGCTCGC fall at or above the 2 mark?
Y

Does the reported PBM binding z-score for ACTATTAGTTCACTTAGGGCAACCGATACGACGC fall at or above the 2 mark?
Y

Does the reported PBM binding z-score for CAAACTAGGTCAAGGTCAAAATCGGTTTGTGCCA fall at or above the 2 mark?
Y

Does the reported PBM binding z-score for TCTTGTAGATCACCAGGTTAAGAAAGCTGGCCAA fall at or above the 2 mark?
N

Does the reported PBM binding z-score for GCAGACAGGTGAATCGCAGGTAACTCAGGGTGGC fall at or above the 2 mark?
N

Does the reported PBM binding z-score for CGTCCAAGGTCATAGGCGGTCAGTGAAGACAGAT fall at or above the 2 mark?
Y

Does the reported PBM binding z-score for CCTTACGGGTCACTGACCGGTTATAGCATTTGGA fall at or above the 2 mark?
Y

Does the reported PBM binding z-score for GCTTATAGATCAAGGTTAAGAAAGACTAAGCTAA fall at or above the 2 mark?
N

Does the reported PBM binding z-score for ACTCTTAGTTGACTTAGGGCAACCGATACGACGC fall at or above the 2 mark?
N

Does the reported PBM binding z-score for CGAACTAGGTCAAGCACAGTGAATCTCCGCACGC fall at or above the 2 mark?
Y

Does the reported PBM binding z-score for ATCGAAAGGTCGACGAGGTTAGTATACACCGTTT fall at or above the 2 mark?
Y

Does the reported PBM binding z-score for ATCGAAAGGTCGTGAGGTGAGTATCCAGAAAGGC fall at or above the 2 mark?
Y

Does the reported PBM binding z-score for TCATATAGGTAAAAGGTGCAAGTCGGTGTGGTAA fall at or above the 2 mark?
N

Does the reported PBM binding z-score for ATCGATAGGTCGAGGTGAGTATAGAGAAAGGGAA fall at or above the 2 mark?
Y

Does the reported PBM binding z-score for CCTTGCGGGTCACTCCAGGTTATAGCATCGGAGT fall at or above the 2 mark?
Y

Does the reported PBM binding z-score for CCTACTGGGCCAAAAAGGTCATTAATGCCGATAA fall at or above the 2 mark?
Y

Does the reported PBM binding z-score for TCATATAGGTAAACAGGTGATAGTCCGTAAGTTA fall at or above the 2 mark?
N

Does the reported PBM binding z-score for CAAACTAGGTCAGGAGGTCAAAGTCCGCTTCCCG fall at or above the 2 mark?
Y

Does the reported PBM binding z-score for TCATATATGTAAAGGTGAAAGTCGAACGATATGA fall at or above the 2 mark?
N

Does the reported PBM binding z-score for GCTCGGAGGACAAGGTCAGATCTTTGTCCGTAGA fall at or above the 2 mark?
Y

Does the reported PBM binding z-score for CGTCCAAGGTCAAAGGTCAGTCAAGAGATGACGG fall at or above the 2 mark?
Y

Does the reported PBM binding z-score for CCCACTGGGGCAAGGTTACCATAACGCACAGCCA fall at or above the 2 mark?
N

Does the reported PBM binding z-score for CGTCCAAGGTCAGCAGGTCGGTGAAAGCGACGTG fall at or above the 2 mark?
Y

Does the reported PBM binding z-score for TCCTGTAGATCAAGCAGGTTAAGAAAGCCTGAGT fall at or above the 2 mark?
N

Does the reported PBM binding z-score for CCGAGTAGGTGATGGGGCATTCAGGCAACGGTGA fall at or above the 2 mark?
N

Does the reported PBM binding z-score for CTTATTAGTTGACCATAAGGGCAACCGAAGCTCG fall at or above the 2 mark?
N

Does the reported PBM binding z-score for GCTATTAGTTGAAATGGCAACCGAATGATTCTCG fall at or above the 2 mark?
N

Does the reported PBM binding z-score for CCTGCTAGGCCATGGTCAGCTAATCTACAGTATG fall at or above the 2 mark?
N

Does the reported PBM binding z-score for CGAACCAGGTCAGAACAGGACAGTGAAGGATGAT fall at or above the 2 mark?
Y

Does the reported PBM binding z-score for ACTAGCAGGGCAAGGGTCACTCAAGATTAGTCCG fall at or above the 2 mark?
Y

Does the reported PBM binding z-score for AGTCAAAGTTCACTAGGAAACGTAAGATTCAGCT fall at or above the 2 mark?
Y

Does the reported PBM binding z-score for TCATATAGGTAAATTCTAGGTGAAAGTCCGATCT fall at or above the 2 mark?
N

Does the reported PBM binding z-score for CCTAATGGGCCATCAGGTCATTGATATCAACGTT fall at or above the 2 mark?
Y

Does the reported PBM binding z-score for TCTATTAGTTGCTTAGGGCAACCGAAACAGCGGA fall at or above the 2 mark?
N

Does the reported PBM binding z-score for TCTCTTAGTTGATTAGGGCAACCGAAACAGCGGA fall at or above the 2 mark?
N

Does the reported PBM binding z-score for TCTTGTAGATCTGCAGGTTAAGAAAGCTGGCCAA fall at or above the 2 mark?
N
